These measurements were taken from PubChem BioAssay AID256.

System: CD2F1 mice, L1210 leukemia ip, survival T/C
Assay: NCI In Vivo Anticancer Drug Screen. Data for tumor model L1210 Leukemia (intraperitoneal) in CD2F1 (CDF1) mice
Conditions: endpoint: mean survival time; dose: 50.0 mg/kg/injection; schedule: Q04DX003 (ip); vehicle: saline with Tween-80; higher = longer survival
Toxic doses and inconclusive results are not listed.
recorded.endpoint: T/C

Give T/C for all compounds that follow.
1. C[n+]1cccc(NC(=O)COc2ccc(Cl)c(Cl)c2)c1
2. COc1ccc(OC)c(CCN)c1
3. CCOC(=O)c1ccc(NC(=O)Nc2cccc(NC(C)=O)c2)cc1

Resp:
1: 104 % of control; 2: 97 % of control; 3: 90 % of control

====

Tested on: CD2F1 mice, L1210 leukemia ip, survival T/C
Test: NCI In Vivo Anticancer Drug Screen. Data for tumor model L1210 Leukemia (intraperitoneal) in CD2F1 (CDF1) mice
Conditions: endpoint: mean survival time; dose: 25.0 mg/kg/injection; schedule: Q01DX009 (ip); vehicle: saline with Tween-80
Inconclusive results and toxic doses are left out. How the source made its calls: active means survival T/C of 150% or more; inactive means T/C below 125% in these data.
Write down the outcome that applies. Available outcomes: yes for active, no for inactive

For orientation, consider the following solved cases.
- compound: "O=S(=O)(SC(Cl)(Cl)Cl)c1ccc(Cl)cc1"
  system.tested: "CD2F1 mice, L1210 leukemia ip, survival T/C"
  label.class: "no"
- compound: "Cc1cc(Cl)ccc1NC(=O)N1CCCC(C)C1 (centres undefined)"
  system.tested: "CD2F1 mice, L1210 leukemia ip, survival T/C"
  label.class: "no"

Here's the next entry for you.
Req: Please let me know the test result on file for CCCCC(CCCC)c1ccccn1 .
Resp: no

====

Exercise: for every item that follows, state its recorded T/C.
Test system: CD2F1 mice, L1210 leukemia ip, survival T/C
Assay: NCI In Vivo Anticancer Drug Screen. Data for tumor model L1210 Leukemia (intraperitoneal) in CD2F1 (CDF1) mice
Settings: endpoint: mean survival time; dose: 25.0 mg/kg/injection; schedule: Q04DX003 (ip); vehicle: saline with Tween-80; higher = longer survival
Inconclusive results and toxic doses are left out.

Below, each entry is followed by its recorded T/C result.
- structure.smiles: "COc1ccccc1OC(=O)Nc1ccc(C)c([N+](=O)[O-])c1"
  T/C: "96 % of control"
- structure.smiles: "O=C(C=C(C(F)(F)F)C(F)(F)F)c1cccc(C(F)(F)F)c1"
  T/C: "106 % of control"

Item: S=c1[n-]c2ccccc2s1.S=c1[n-]c2ccccc2s1.[Cl][Pt+2][Cl] | System: CD2F1 mice, L1210 leukemia ip, survival T/C | T/C: 95 % of control

====

Give T/C for every item shown.
Tested on: CD2F1 mice, L1210 leukemia ip, survival T/C
Test: NCI In Vivo Anticancer Drug Screen. Data for tumor model L1210 Leukemia (intraperitoneal) in CD2F1 (CDF1) mice
Conditions: endpoint: mean survival time; dose: 400.0 mg/kg/injection; schedule: Q01DX001 (ip); vehicle: saline with Tween-80; higher = longer survival
Toxic doses and inconclusive results are not listed.

Take a look at these entries with their results.
- compound: "COC(=O)CCS/C=C/C(=O)O"
  T/C: "97 % of control"
- compound: "Cc1nc(N)[nH]c(=O)c1CCCN(c1ccccc1)S(=O)(=O)c1ccc(N)cc1"
  T/C: "89 % of control"
- compound: "CC(C(=O)c1ccccc1)C(c1ccccc1)N1CCCCC1 (centres undefined)"
  T/C: "90 % of control"
- compound: "CC(=O)Oc1cc(Cl)c(Cl)cc1Cl"
  T/C: "94 % of control"
- compound: "CCCC(=O)Nc1ccc(S(=O)(=O)Nc2ccc(S(=O)(=O)N3CCOCC3)cc2)cc1"
  T/C: "94 % of control"
- compound: "CC1(C)C(N2CCOCC2)C(c2ccccc2)S1(=O)=O (centres undefined)"
  T/C: "105 % of control"
- compound: "O=C(NCCNC(c1ccccc1)C(NCCNC(=O)c1ccccc1)c1ccccc1)c1ccccc1 (centres undefined)"
  T/C: "92 % of control"
- compound: "CCOc1cccc(Cc2cn(Cc3cccc(NC(=O)Nc4cccc(S(=O)(=O)F)c4)c3)c(=O)[nH]c2=O)c1"
  T/C: "94 % of control"

List reported T/C for each of these compounds:
1. Cc1cc(=O)[nH]c2cc(Br)ccc12
2. COc1ccccc1C(=O)CC(O)(C(F)(F)F)C(F)(F)F
3. CC(C)CCCCCOC(=O)Nc1cccc2ccccc12
4. CCOC(=O)CN1CCC(C2(c3cc4ccccc4[nH]3)OCCO2)CC1
5. CC(C)(C(=O)O)C(C)(C)C(=O)O
6. CNC(=O)C1CCC(CC2CCCCC2)CC1 (centres undefined)
7. Nc1ccc(-c2nc(N)[nH]c(=O)c2N)cc1
8. O=c1c2ccccc2sc2c1ccc1ccccc12

Resp:
1: 87 % of control; 2: 109 % of control; 3: 92 % of control; 4: 102 % of control; 5: 101 % of control; 6: 102 % of control; 7: 88 % of control; 8: 94 % of control

====

System: CD2F1 mice, L1210 leukemia ip, survival T/C
Assay: NCI In Vivo Anticancer Drug Screen. Data for tumor model L1210 Leukemia (intraperitoneal) in CD2F1 (CDF1) mice
Conditions: endpoint: mean survival time; dose: 100.0 mg/kg/injection; schedule: Q04DX002 (ip); vehicle: saline with Tween-80; higher = longer survival
Toxic doses and inconclusive results are not listed.
recorded.endpoint: T/C

Known results for compounds:
- structure.smiles: "COC(=O)CCCCCCCCCC(=O)OC"
  system.tested: "CD2F1 mice, L1210 leukemia ip, survival T/C"
  T/C: "87 % of control"
- structure.smiles: "CS(=O)(=O)N1C(=O)c2ccccc2C1=O"
  system.tested: "CD2F1 mice, L1210 leukemia ip, survival T/C"
  T/C: "93 % of control"
- structure.smiles: "Cc1c(F)cccc1NC(=O)OC(C)C"
  system.tested: "CD2F1 mice, L1210 leukemia ip, survival T/C"
  T/C: "97 % of control"

We now examine a further compound.
Sample Cc1ccc(C2=CC(=O)C(c3ccc(C)cc3C)=CC2=O)c(C)c1 ; T/C observed: 86 % of control

====

Test system: CD2F1 mice, L1210 leukemia ip, survival T/C
Assay: NCI In Vivo Anticancer Drug Screen. Data for tumor model L1210 Leukemia (intraperitoneal) in CD2F1 (CDF1) mice
Details: endpoint: mean survival time; dose: 25.0 mg/kg/injection; schedule: Q01DX009 (ip); vehicle: Klucel (hydroxypropylcellulose) (HPC); higher = longer survival
Inconclusive results and toxic doses are left out.
Kindly supply the reported T/C values for the records listed here.

Past entries and their recorded results:
- molecule: "CN/N=C1\\CCC2(C)C(CCC3C4CCC(O)C4(C)CCC32)C1 (centres undefined)"
  system.tested: "CD2F1 mice, L1210 leukemia ip, survival T/C"
  T/C: "89 % of control"
- molecule: "CN1c2c(nc(N)[nH]c2=O)NCC1CCNc1ccc(C(=O)NC(CCC(=O)O)C(=O)O)cc1 (centres undefined)"
  system.tested: "CD2F1 mice, L1210 leukemia ip, survival T/C"
  T/C: "118 % of control"
- molecule: "C=C(Br)CNC(=O)Nc1c2ccccc2nc2ccccc12"
  system.tested: "CD2F1 mice, L1210 leukemia ip, survival T/C"
  T/C: "97 % of control"

// field: T/C; key: CN(C)N=Nc1ccc(/C=C/C(=O)O)cc1 ; value = 111 % of control

====

Test system: CD2F1 mice, L1210 leukemia ip, survival T/C
Experiment: NCI In Vivo Anticancer Drug Screen. Data for tumor model L1210 Leukemia (intraperitoneal) in CD2F1 (CDF1) mice
Conditions: endpoint: mean survival time; dose: 25.0 mg/kg/injection; schedule: Q04DX002 (ip); vehicle: saline with Tween-80; higher = longer survival
Inconclusive results and toxic doses are left out.
recorded.endpoint: T/C

Before answering, review these 5 worked examples.
- compound: "CN=C1C=C/C(=N/N=c2/ccn(O)cc2C)C=C1C"
  T/C: "106 % of control"
- compound: "C=CCNC(=S)n1cnc(N)n1"
  T/C: "104 % of control"
- compound: "O=c1[nH]c2ccccc2c2c3ccccc3nn12"
  T/C: "113 % of control"
- compound: "O=c1cc(CCl)oc(Br)c1O"
  T/C: "98 % of control"
- compound: "COc1ccc(NC(=O)Nc2ccccc2C)c(OC)c1"
  T/C: "88 % of control"

Briefly, T/C measured for CC1=CC(C(=O)O)P(C)(=O)C1 (stereo unspecified) : 100 % of control

====

System: CD2F1 mice, L1210 leukemia ip, survival T/C
Experiment: NCI In Vivo Anticancer Drug Screen. Data for tumor model L1210 Leukemia (intraperitoneal) in CD2F1 (CDF1) mice
Details: endpoint: mean survival time; dose: 25.0 mg/kg/injection; schedule: Q04DX003 (ip); vehicle: saline; higher = longer survival
Toxic doses and inconclusive results are not listed.
recorded.endpoint: T/C

Examples with their reported T/C follow.
- structure.smiles: "CCCC[n+]1ccccc1Cc1ccccc1"
  system.tested: "CD2F1 mice, L1210 leukemia ip, survival T/C"
  T/C: "101 % of control"
- structure.smiles: "C=C(Br)CN=C=S"
  system.tested: "CD2F1 mice, L1210 leukemia ip, survival T/C"
  T/C: "94 % of control"

# input for lookup
Record summary for Cc1cc(C)[nH]c(=S)n1.[Pd] : reported T/C = 103 % of control
